Molecular target: UniProt:Q14289
Sequence (Q14289 whole entry): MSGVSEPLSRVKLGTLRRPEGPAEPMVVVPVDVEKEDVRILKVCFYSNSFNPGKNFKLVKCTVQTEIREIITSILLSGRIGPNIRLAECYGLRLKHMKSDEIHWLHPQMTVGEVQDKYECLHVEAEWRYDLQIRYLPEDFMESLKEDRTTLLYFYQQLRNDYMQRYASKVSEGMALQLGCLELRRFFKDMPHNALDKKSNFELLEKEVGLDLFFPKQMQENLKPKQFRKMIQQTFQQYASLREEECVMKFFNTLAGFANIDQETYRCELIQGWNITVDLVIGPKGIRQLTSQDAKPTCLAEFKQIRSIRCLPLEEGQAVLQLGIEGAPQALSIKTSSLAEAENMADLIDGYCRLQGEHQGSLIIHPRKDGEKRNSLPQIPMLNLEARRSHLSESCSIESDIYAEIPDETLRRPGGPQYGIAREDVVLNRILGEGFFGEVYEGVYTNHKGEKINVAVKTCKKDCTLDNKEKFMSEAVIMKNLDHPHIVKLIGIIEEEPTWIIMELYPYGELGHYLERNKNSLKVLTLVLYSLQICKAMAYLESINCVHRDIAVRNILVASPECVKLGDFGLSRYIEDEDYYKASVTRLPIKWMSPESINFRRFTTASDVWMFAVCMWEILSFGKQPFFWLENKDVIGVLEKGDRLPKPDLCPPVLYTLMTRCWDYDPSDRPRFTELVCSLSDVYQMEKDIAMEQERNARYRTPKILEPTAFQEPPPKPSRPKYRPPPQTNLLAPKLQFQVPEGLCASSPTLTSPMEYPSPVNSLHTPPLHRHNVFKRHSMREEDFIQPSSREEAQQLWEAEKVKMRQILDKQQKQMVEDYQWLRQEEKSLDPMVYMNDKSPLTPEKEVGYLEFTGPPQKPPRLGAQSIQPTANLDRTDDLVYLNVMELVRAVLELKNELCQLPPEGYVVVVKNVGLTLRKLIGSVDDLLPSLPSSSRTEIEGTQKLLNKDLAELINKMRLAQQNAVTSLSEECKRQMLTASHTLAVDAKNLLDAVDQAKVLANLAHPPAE
Assay type: cell-based
Conditions: PTK2B (Q14289-1) protein abundance, degrader vs DMSO; down
Exercise: for every item that follows, state its recorded logFC.
No unit in the answer, please; the number alone is enough.

input: For CC(C)S(=O)(=O)c1ccccc1Nc1nc(Nc2ccc(N3CCN(CCOCCOCCOCCNC(=O)CNc4cccc5c4C(=O)N(C4CCC(=O)NC4=O)C5=O)CC3)cc2)ncc1Cl (stereo not shown) [SK.3.87] , what is its reported logFC?
output: −3.217

input: Could you share which logFC value was measured for CS(=O)(=O)Nc1cccc(-c2csc3cnc(Nc4ccc(N5CCN(CCOCCOCCOc6cccc7c6C(=O)N(C6CCC(=O)NC6=O)C7=O)CC5)cc4)nc23)c1 (stereo not shown) [RSS0628] ?
output: −1.517

input: Which value of logFC has been reported for CNC(=O)c1ccccc1Nc1cc(Nc2ccc(N3CCN(CCOCCOCCNC(=O)CNc4cccc5c4C(=O)N(C4CCC(=O)NC4=O)C5=O)CC3)cc2OC)ncc1C(F)(F)F (stereo not shown) [MFH.5.103.1] in the records?
output: −3.18

input: Requested read-out: logFC. Entry: NC(=O)c1c(F)cccc1Nc1nc(Nc2ccc(S(=O)(=O)NCCOCCOCCOCCOCCNc3cccc4c3C(=O)N(C3CCC(=O)NC3=O)C4=O)cc2)ncc1Br (stereo not shown) [TMX.02.138]
output: −1.24

input: Form field: reported logFC of CC(C)S(=O)(=O)c1ccccc1Nc1nc(Nc2ccc(N3CCN(CCOCCOCCOCCNC(=O)CNc4ccc5c(c4)C(=O)N(C4CCC(=O)NC4=O)C5=O)CC3)cc2)ncc1Cl (stereo not shown) [SK.3.89]
output: −3.554

input: Please look up its logFC: CS(=O)(=O)Nc1cccc(-c2csc3cnc(Nc4ccc(N5CCN(CCCCCOc6cccc7c6C(=O)N(C6CCC(=O)NC6=O)C7=O)CC5)cc4)nc23)c1 (stereo not shown) [DB0614]
output: −1.425

input: Reported logFC, compound Cc1cc(Nc2ncc(Br)c(Nc3cccc(F)c3C(N)=O)n2)ccc1S(=O)(=O)NCCOCCOCCOCCOCCNc1cccc2c1C(=O)N(C1CCC(=O)NC1=O)C2=O (stereo not shown) [TMX.02.174] : ____
output: −1.512

Where these numbers come from: patent US20240269139A1
